# System: biotinyl-Ile-oxazolone
# Assay comment: self-aminoacylation, catalytic enhancement (BIO) (fold over background); higher = more active; k-Seq, kA / k0A0; sequences stand for … in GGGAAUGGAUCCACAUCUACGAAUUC…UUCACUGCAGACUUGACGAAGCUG
Fewer inactive variants are shown than the library holds.
Measured endpoint: self-aminoacylation
Output: the number by itself.

CUACUUCAAACAAUCCAUCUG [Fam1A.1 aminoacylation ribozyme variant] = 0.656

Req: Param item = AUUCACCUACGUCCUCGGGUG [Fam2.2 aminoacylation ribozyme variant] ; retrieve measured self-aminoacylation.
Resp: 2.7

Req: Recorded self-aminoacylation for AUUACCCUCGUCAUCGACUGA [Fam2.1 aminoacylation ribozyme variant] , please?
Resp: 0.735

---

# System: biotinyl-Met-oxazolone
# Assay comment: self-aminoacylation, catalytic enhancement (BMO) (fold over background); higher = more active; k-Seq, kA / k0A0; sequences stand for … in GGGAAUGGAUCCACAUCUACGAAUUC…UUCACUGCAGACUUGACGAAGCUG
Fewer inactive variants are shown than the library holds.
# if value of self-aminoacylation reaches 2, tag yes (1); if it stays below, tag no (0)

// below: answered sequences
AUUCAGCUAGGCCAUCGGGUG [Fam2.2 aminoacylation ribozyme variant] = yes (1)
AUGCACCUAGGACAUCGGGUG [Fam2.2 aminoacylation ribozyme variant] = yes (1)
AAGUUUGCUAAUAGGCGGAAG [Fam3.1 aminoacylation ribozyme variant] = no (0)
AAGUUUUCUACUAGUCGCAAG [Fam3.1 aminoacylation ribozyme variant] = no (0)
UUACUUCUAACAAUCGGUCUG [Fam1A.1 aminoacylation ribozyme variant] = no (0)

Req: Quick check: does AUUCUCCUAGGUCAUCGGGCG [Fam2.2 aminoacylation ribozyme variant] have self-aminoacylation greater than or equal to 2?
Resp: yes (1)

Req: Please indicate if the recorded self-aminoacylation for CCACACGUCAAGCAAUCUGUC [Fam1B.1 aminoacylation ribozyme variant] meets or exceeds 2.
Resp: no (0)

Req: Quick check: does UUUACCCUGGUCAUCGAGUCA [Fam2.1 aminoacylation ribozyme variant] have self-aminoacylation greater than or equal to 2?
Resp: no (0)

Req: In plain terms: is recorded self-aminoacylation at least 2 for CCACAUUUCAAGCAAUCGGGC [Fam1B.1 aminoacylation ribozyme variant] ?
Resp: yes (1)

Req: Check if self-aminoacylation >= 2 (inclusive). Item: AUUAACCUGGUGAUCGAGUGA [Fam2.1 aminoacylation ribozyme variant]
Resp: yes (1)

Req: Has AUUACCCUGGUCAUCGCGUGC [Fam2.1 aminoacylation ribozyme variant] a recorded self-aminoacylation greater than or equal to 2?
Resp: yes (1)

Req: Is self-aminoacylation at least 2? Consider AUUACGCUGGUCCUCGAGUGA [Fam2.1 aminoacylation ribozyme variant]
Resp: yes (1)

Req: Test whether the sequence AUUAGCCUGGUCAUCCAGUGA [Fam2.1 aminoacylation ribozyme variant] records self-aminoacylation of 2 or higher.
Resp: yes (1)

Req: Please check the record CCACUUCAAACAAUCGGUCAG [Fam1A.1 aminoacylation ribozyme variant] and state if its self-aminoacylation is at or above 2.
Resp: no (0)

Req: Is reported self-aminoacylation greater than or equal to 2 here: CUACUUCAACGAAUCGGUCUG [Fam1A.1 aminoacylation ribozyme variant]
Resp: no (0)

Req: Does the sequence GCACACUUCAAGCACUCGGUC [Fam1B.1 aminoacylation ribozyme variant] have recorded self-aminoacylation that is 2 or more?
Resp: yes (1)

Req: Say whether AUUACCCUGUUCACCGAGUGA [Fam2.1 aminoacylation ribozyme variant] shows self-aminoacylation of 2 or more.
Resp: yes (1)

Req: Check the entry AAGUUCGAUAAUAGUCGCAAG [Fam3.1 aminoacylation ribozyme variant] : does self-aminoacylation equal or exceed 2?
Resp: no (0)

Req: Evaluate CAGUGUGCUAAUAGUCGCAAG [Fam3.1 aminoacylation ribozyme variant] : self-aminoacylation at minimum 2?
Resp: no (0)

Req: Decide: is the reported value of self-aminoacylation for AUUCACCGAGCUCAUCGGGUG [Fam2.2 aminoacylation ribozyme variant] equal to or greater than 2?
Resp: yes (1)

meta.source: the supplement of paper PMC9233669
